For each entry below, report its % cells in cell cycle phase: S value.
system: HeLa cells; assay: Cell cycle assay in HeLa cells; format: cell-based, human; settings: HeLa cells, 150 nM, 48 hours; percentage of cells in phase, average of replicates
In the oligonucleotide strings, read from the 5' end, every base follows the letter of its sugar. An asterisk marks phosphorothioate; unmarked linkages are phosphodiester. Other units and linkages are bracketed, terminal groups are in braces. A string of capitals states the bases alone. e = 2'-O-(2-methoxyethyl) (MOE); [5mC] = 5-methylcytosine; d = 2'-deoxy (DNA)
Report only the number, with the unit % understood.

Need % cells in cell cycle phase: S, item 328383 (eA*eG*eA*eG*eG*dG*dG*dA*dG*dA*d[5mC]*dG*dA*dG*dA*eG*e[5mC]*eA*e[5mC]*eT) [compound 328383]
36

Need % cells in cell cycle phase: S, item 327905 (antisense e[5mC]*eA*eG*eA*e[5mC]*eT*e[5mC]*e[5mC]*eG*eG*eT*eG*eG*eA*eA*eT*eG*eA*eA*eG*eG*eA) [compound 327905]
38

Need % cells in cell cycle phase: S, item 327902 (antisense eG*eG*e[5mC]*eT*eG*eT*e[5mC]*eA*eA*eT*eT*e[5mC]*eA*eT*eA*eG*eG*eT*e[5mC]*eA*eG) [compound 327902]
36

Need % cells in cell cycle phase: S, item 328403 (antisense eA*eG*eG*e[5mC]*e[5mC]*dT*dA*dT*dT*d[5mC]*d[5mC]*dT*dG*dT*dA*eG*e[5mC]*eA*eA*eA) [compound 328403]
40

---

For each entry below, report its aP2 mRNA value.
tested on: aP2; assay: aP2 mRNA expression in adipocytes (real-time PCR); assay type: cell-based, human; details: differentiating adipocytes transfected with oligomeric compound; Table 75
In the oligonucleotide strings, read from the 5' end, every base follows the letter of its sugar. An asterisk marks phosphorothioate; unmarked linkages are phosphodiester. Other units and linkages are bracketed, terminal groups are in braces. A string of capitals states the bases alone. e = 2'-O-(2-methoxyethyl) (MOE); [5mC] = 5-methylcytosine

Need aP2 mRNA, item 327923 (antisense eG*eA*eA*eA*eG*eA*eG*eA*e[5mC]*e[5mC]*eG*eG*eT*eT*e[5mC]*eA*e[5mC]*eT*eG*eT*eG*eA) [compound 327923]
65 percentage of untreated control (UTC)

Need aP2 mRNA, item 327952 (antisense e[5mC]*eT*eA*e[5mC]*eG*e[5mC]*eG*eT*eA*eT*eT*e[5mC]*eT*eT*eA*eA*eG*e[5mC]*eA*eA*eT*eA) [compound 327952]
56 percentage of untreated control (UTC)

Need aP2 mRNA, item 328094 (antisense eT*eT*eG*eT*eA*eA*eG*e[5mC]*eA*eG*eT*eT*eT*eT*eG*eT*eT*eG*eA*e[5mC]*eA) [compound 328094]
68 percentage of untreated control (UTC)

Need aP2 mRNA, item 328103 (antisense e[5mC]*e[5mC]*e[5mC]*eA*eA*eT*eA*eT*e[5mC]*eA*eA*eA*e[5mC]*eA*eT*eA*eT*e[5mC]*eA) [compound 328103]
96 percentage of untreated control (UTC)

Need aP2 mRNA, item 344611 (ACAUUUUUCGUUAUUGCUCUUGA; anti-miR; all 2'-MOE, all phosphorothioate, methylation of C and T or U not given here) [compound 344611]
34 percentage of untreated control (UTC)
